Entry source: ChEMBL document CHEMBL1155883

experiment: Selectivity index, ratio of CC50 for human MT4 cells to EC50 for HIV1 NL4-3; assay type: toxicity, cell-based; conditions: read-out: Ratio CC50/EC50
measured_metric: selectivity ratio

Worked cases, answers included:
# molecule, value_reported
data = [
    ("O=C(CSc1nc(Cc2c(F)cccc2F)cc(=O)[nH]1)c1ccccc1", "> 67"),
    ("COc1ccc(C(=O)CSc2nc(Cc3c(F)cccc3Cl)cc(=O)[nH]2)cc1", "> 8"),
    ("Cc1cc(C)cc(CSc2nc(Cc3c(F)cccc3F)c(C)c(=O)[nH]2)c1", "> 5"),
    ("O=C(CSc1nc(Cc2c(Cl)cccc2Cl)cc(=O)[nH]1)c1ccc(F)cc1", "> 76"),
    ("O=C(CSc1nc(Cc2c(Cl)cccc2Cl)cc(=O)[nH]1)c1ccccc1", "> 7"),
]

// selectivity ratio lookup, molecule = CC(C)c1c(Cc2c(F)cccc2Cl)nc(SCC(=O)c2ccc(F)cc2)[nH]c1=O , result: > 14000

// selectivity ratio lookup, molecule = CCc1c(Cc2c(F)cccc2F)nc(SCC(=O)c2ccccc2)[nH]c1=O , result: 4670

// selectivity ratio lookup, molecule = COc1ccc(C(=O)CSc2nc(Cc3c(F)cccc3F)c(C(C)C)c(=O)[nH]2)cc1 , result: 16500

// selectivity ratio lookup, molecule = COc1ccc(C(=O)CSc2nc(Cc3c(F)cccc3F)c(C)c(=O)[nH]2)cc1 , result: > 1250

// selectivity ratio lookup, molecule = Cc1ccc(CSc2nc(Cc3c(F)cccc3F)c(C)c(=O)[nH]2)c(C)c1 , result: > 162
